Measured values drawn from ChEMBL document CHEMBL1149139 for this set.

# target-or-system: Stromelysin-1 (Homo sapiens)
# Sequence (P08254 whole entry): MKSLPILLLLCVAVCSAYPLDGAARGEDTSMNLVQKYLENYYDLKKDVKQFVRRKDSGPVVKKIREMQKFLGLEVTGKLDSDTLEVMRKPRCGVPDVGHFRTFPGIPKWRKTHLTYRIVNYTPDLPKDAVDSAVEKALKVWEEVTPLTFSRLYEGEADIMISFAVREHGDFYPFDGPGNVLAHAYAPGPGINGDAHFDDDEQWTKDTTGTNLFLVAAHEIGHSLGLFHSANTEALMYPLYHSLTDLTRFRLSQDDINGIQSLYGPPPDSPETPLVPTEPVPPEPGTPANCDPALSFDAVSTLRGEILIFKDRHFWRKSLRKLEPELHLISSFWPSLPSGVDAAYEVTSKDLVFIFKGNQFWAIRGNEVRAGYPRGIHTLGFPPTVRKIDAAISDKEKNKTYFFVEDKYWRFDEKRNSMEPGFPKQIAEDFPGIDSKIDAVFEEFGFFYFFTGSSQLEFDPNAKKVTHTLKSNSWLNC
# test-protocol: Inhibition of human recombinant matrix metalloprotease 3
outcome-measure: pKi
Scale explanation: pKi corresponds to minus log10 of a concentration expressed in moles per litre.

>>> result_value("O=C(NO)[C@H]1[C@@H](O)[C@H](O)[C@H](O)CN1S(=O)(=O)c1ccc(-c2ccccc2)cc1")
7.30
>>> result_value("O=C(NO)[C@H]1[C@@H](O)[C@H](O)[C@H](O)CN1S(=O)(=O)c1ccc(OCc2ccccc2)cc1")
8.68

Kindly review the next molecule as well.
Give Stromelysin-1 (Homo sapiens) pKi for O=C(NO)[C@H]1[C@@H](O)[C@H](O)[C@H](O)CN1S(=O)(=O)c1ccc(Oc2ccccc2)cc1
9.46

* * *

Consider the following pIC50 values measured on Disintegrin and metalloproteinase domain-containing protein 17 (Homo sapiens).
Sequence (P78536 whole entry, the tested form may be a part): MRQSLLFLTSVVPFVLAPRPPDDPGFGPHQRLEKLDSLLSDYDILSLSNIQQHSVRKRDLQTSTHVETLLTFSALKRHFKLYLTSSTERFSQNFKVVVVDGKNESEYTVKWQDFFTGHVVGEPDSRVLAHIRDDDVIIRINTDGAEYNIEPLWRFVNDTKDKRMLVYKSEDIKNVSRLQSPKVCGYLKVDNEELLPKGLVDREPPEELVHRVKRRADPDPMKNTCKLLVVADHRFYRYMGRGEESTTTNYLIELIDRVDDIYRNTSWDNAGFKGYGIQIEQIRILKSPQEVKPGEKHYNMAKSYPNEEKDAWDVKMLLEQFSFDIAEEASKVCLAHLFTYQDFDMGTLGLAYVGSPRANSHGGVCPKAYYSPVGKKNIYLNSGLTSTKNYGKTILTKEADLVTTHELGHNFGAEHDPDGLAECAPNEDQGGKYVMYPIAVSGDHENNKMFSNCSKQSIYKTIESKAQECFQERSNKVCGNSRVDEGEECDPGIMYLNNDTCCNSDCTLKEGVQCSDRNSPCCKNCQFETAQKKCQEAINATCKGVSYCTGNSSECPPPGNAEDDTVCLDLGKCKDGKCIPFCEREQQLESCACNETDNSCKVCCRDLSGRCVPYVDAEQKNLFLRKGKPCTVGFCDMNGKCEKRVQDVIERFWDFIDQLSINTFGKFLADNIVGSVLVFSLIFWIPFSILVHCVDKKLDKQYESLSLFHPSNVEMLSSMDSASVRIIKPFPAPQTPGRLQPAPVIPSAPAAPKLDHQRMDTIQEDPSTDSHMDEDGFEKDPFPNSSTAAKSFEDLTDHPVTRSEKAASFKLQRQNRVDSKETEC
Scale explanation: pIC50 corresponds to minus log10 of a concentration expressed in moles per litre.

Before answering, review these 4 worked examples.
>>> result_value("O=C(NO)[C@H]1[C@@H](O)[C@H](O)[C@H](O)CN1S(=O)(=O)c1ccc(Oc2ccccc2)cc1")
6.47
>>> result_value("COc1ccc(S(=O)(=O)N2C[C@@H](O)[C@@H](O)[C@H](O)[C@@H]2C(=O)NO)cc1")
6.35
>>> result_value("O=C(NO)[C@H]1[C@@H](O)[C@H](O)[C@H](O)CN1S(=O)(=O)c1ccc(-c2ccccc2)cc1")
4.68
>>> result_value("O=C(NO)[C@H]1[C@@H](O)[C@H](O)[C@@H](O)CN1S(=O)(=O)c1ccc(Oc2ccccc2)cc1")
6.46

Kindly review the next compound as well.
Item O=C(NO)[C@H]1[C@@H](O)[C@H](O)[C@H](O)CN1S(=O)(=O)c1ccc(OCc2ccccc2)cc1 has what recorded pIC50?
7.08

* * *

# target-or-system: Matrix metalloproteinase-9 (Homo sapiens)
# Sequence (P14780 whole entry): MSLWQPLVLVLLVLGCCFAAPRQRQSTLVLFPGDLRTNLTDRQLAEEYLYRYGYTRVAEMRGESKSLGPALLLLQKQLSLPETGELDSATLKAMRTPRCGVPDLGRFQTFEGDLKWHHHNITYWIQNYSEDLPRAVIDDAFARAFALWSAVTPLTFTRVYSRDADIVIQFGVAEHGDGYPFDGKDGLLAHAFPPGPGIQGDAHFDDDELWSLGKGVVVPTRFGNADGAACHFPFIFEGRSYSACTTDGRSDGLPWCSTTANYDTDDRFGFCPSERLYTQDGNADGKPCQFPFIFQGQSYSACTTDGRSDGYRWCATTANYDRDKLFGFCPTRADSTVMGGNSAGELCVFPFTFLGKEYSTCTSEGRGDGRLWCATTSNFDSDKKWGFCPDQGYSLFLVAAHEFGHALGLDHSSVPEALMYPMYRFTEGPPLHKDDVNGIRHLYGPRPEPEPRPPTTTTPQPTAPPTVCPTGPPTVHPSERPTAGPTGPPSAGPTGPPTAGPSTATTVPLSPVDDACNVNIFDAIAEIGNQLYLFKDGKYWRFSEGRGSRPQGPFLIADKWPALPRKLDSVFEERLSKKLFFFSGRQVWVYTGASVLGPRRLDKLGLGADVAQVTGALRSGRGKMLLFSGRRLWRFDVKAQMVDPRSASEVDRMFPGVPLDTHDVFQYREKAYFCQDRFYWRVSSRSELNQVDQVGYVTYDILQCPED
# test-protocol: Inhibition of human recombinant matrix metalloprotease 9
# maps each entry to its Ki
Give just the numeric value; nM need not be written.

Item O=C(NO)[C@H]1[C@@H](O)[C@H](O)[C@H](O)CN1S(=O)(=O)c1ccc(OCc2ccccc2)cc1 has what recorded Ki?
7.4

Item O=C(NO)[C@H]1[C@@H](O)[C@H](O)[C@H](O)CN1S(=O)(=O)c1ccc(-c2ccccc2)cc1 has what recorded Ki?
47

* * *

# target-or-system: Disintegrin and metalloproteinase domain-containing protein 17 (Homo sapiens)
outcome-measure: pKi
Scale explanation: pKi corresponds to minus log10 of a concentration expressed in moles per litre.

Before answering, review these 3 worked examples.
>>> result_value("O=C(NO)[C@H]1[C@@H](O)[C@H](O)[C@H](O)CN1S(=O)(=O)c1ccc(OCc2ccccc2)cc1")
8.77
>>> result_value("O=C(NO)[C@H]1[C@@H](O)[C@H](O)[C@H](O)CN1S(=O)(=O)c1ccc(-c2ccccc2)cc1")
7.68
>>> result_value("COc1ccc(S(=O)(=O)N2C[C@@H](O)[C@@H](O)[C@H](O)[C@@H]2C(=O)NO)cc1")
7.82

Kindly review the next molecule as well.
Give Disintegrin and metalloproteinase domain-containing protein 17 (Homo sapiens) pKi for O=C(NO)[C@H]1[C@@H](O)[C@H](O)[C@H](O)CN1S(=O)(=O)c1ccc(Oc2ccccc2)cc1
8.21
